Molecular target: Sut1 (UniProt P53032)
Sequence: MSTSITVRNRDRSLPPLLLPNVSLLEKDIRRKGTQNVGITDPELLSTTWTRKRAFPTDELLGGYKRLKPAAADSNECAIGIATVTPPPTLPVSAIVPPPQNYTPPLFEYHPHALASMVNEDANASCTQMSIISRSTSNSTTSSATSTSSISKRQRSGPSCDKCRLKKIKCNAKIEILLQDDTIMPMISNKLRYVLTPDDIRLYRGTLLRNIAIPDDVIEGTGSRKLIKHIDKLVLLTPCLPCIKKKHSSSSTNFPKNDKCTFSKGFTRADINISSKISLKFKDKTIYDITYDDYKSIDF
Assay: PBM E-score (8-mer binding enrichment) (E-score (-0.5 to 0.5)); higher = stronger / more preferred TF binding
Details: protein concentration: 200 nM; construct: GST-full length
In all, about 33,000 sequences were measured (“E-score (-0.5 to 0.5)”: median about -0.017, highest 2% from about 0.3 on). The entries come from a sample that favours the highest values as a whole.
measurement type: PBM E-score
// no unit string in output, number only

For orientation, consider the following solved cases.
chain: CATATATA
measurement target: Sut1 (UniProt P53032)
PBM E-score: 0.299

chain: AGCGGACG
measurement target: Sut1 (UniProt P53032)
PBM E-score: -0.118

chain: AGCGGACT
measurement target: Sut1 (UniProt P53032)
PBM E-score: 0.406

Could you now consider this next sequence?
Would you kindly share the measured PBM E-score for CATAATAA ?
0.131
